experimental-target: SMYD3 (Homo sapiens (Human), UniProt Q9H7B4)
method-description: SMYD3 biochemical assay (SPA, 3H-SAM methylation of MEKK2 protein substrate)
measurement-conditions: Table 2A; read-out: SMYD3 Biochem IC50
Label condition met when IC50 is strictly below 6 nM; otherwise label condition not met.

The following compounds have reported results that may help.
                                   compound       answer_label
0  CN(C)CCN(C)CCCS(=O)(=O)N1[C@@H]2CC[C@H]1C[C@@H](NC(=O)c1cc(C3CC3)on1)C2  condition not met
1  C[C@H]1C[C@@H](NC(=O)c2cc(C3CC3)on2)CCN1S(=O)(=O)N1C[C@H]2C[C@@H]1CN2C  condition not met
2  CN(CCN)CCS(=O)(=O)N1[C@@H]2CC[C@H]1C[C@@H](NC(=O)c1cc(C3CC3)on1)C2  condition not met
3  C[C@H]1C[C@@H](NC(=O)c2cc(C3CC3)on2)CCN1S(=O)(=O)N1CC2CCC1CN2 (some centres unmarked)  condition not met
4  C[C@H]1CN(S(=O)(=O)CC2CCN(CCCO)CC2)CC[C@H]1NC(=O)c1cc(C2CC2)on1  condition not met

Dear reviewer, please state whether `C[C@H]1C[C@@H](NC(=O)c2cc(C3CC3)on2)CCN1S(=O)(=O)N1C2CCC1CNC2` has IC50 strictly beneath 6 nM.
condition not met

Dear reviewer, please state whether `CC1(C)CN(S(=O)(=O)N2[C@@H]3CC[C@H]2C[C@@H](NC(=O)c2cc(C4CC4)on2)C3)CCN1` has IC50 strictly beneath 6 nM.
condition not met

Dear reviewer, please state whether `C[C@H]1C[C@@H](NC(=O)c2cc(C3CC3)on2)CCN1S(=O)(=O)N1CCCNCC1` has IC50 strictly beneath 6 nM.
condition not met
